# Tested on: Caco-2
# protocol notes: cell viability relative to DMSO; higher = less toxic
# condition info: 72 h; 10 nM
measurement kind: cell viability (%)
Report as a plain number; the unit % is understood.

Bench note: what cell viability did O=C1NC(=O)/C(=C/c2ccc(-c3ccc(F)cc3O)o2)S1 show?
103

Bench note: what cell viability did CCC(NC(C)C)C(O)c1ccc(O)c(O)c1 (centres undefined) show?
100

Bench note: what cell viability did CCN(CC)Cc1ccc2cc(COC(=O)Nc3ccc(C(=O)NO)cc3)ccc2c1 show?
89.7

Bench note: what cell viability did N=C(N)NCCCC[C@@H]1NC(=O)CCSSC[C@@H](C(N)=O)NC(=O)[C@@H]2CCCN2C(=O)[C@H](Cc2c[nH]c3ccccc23)NC(=O)[C@H](CC(=O)O)NC(=O)CNC1=O [eptifibatide] show?
99.5

Bench note: what cell viability did CN1CCN(c2c(F)cc3c(=O)c(C(=O)O)cn(CCF)c3c2F)CC1 show?
97.2

Bench note: what cell viability did Cc1cc2nc3c(=O)[nH]c(=O)nc-3n(C)c2cc1C=O show?
90

Bench note: what cell viability did COC(=O)/C=C/c1cc(O)ccc1O show?
102

Bench note: what cell viability did CC1CCN(C(c2ccc(F)cc2)c2ccc(C(C)C(=O)O)cc2-c2ccc(C(F)(F)F)cc2)CC1 (centres undefined) show?
99.5

Bench note: what cell viability did C[N+]1(C)CCC(OC(=O)C(O)(c2ccccc2)C2CCCC2)C1 (centres undefined) [glycopyrrolate] show?
98.6

----------
# Test system: HepG2
# protocol notes: cell viability relative to DMSO; higher = less toxic
# condition info: 72 h; 1000 nM
measurement kind: cell viability (%)
Report as a plain number; the unit % is understood.

Bench note: what cell viability did NS(=O)(=O)c1nn2cc(-c3ccccc3)nc2s1 show?
97

Bench note: what cell viability did CC1=C(/C=C/C(C)=C/C=C/C(C)=C/C=C/C=C(C)/C=C/C=C(C)/C=C/C2=C(C)CCCC2(C)C)C(C)(C)CCC1 show?
110

Bench note: what cell viability did CC[C@H](C)[C@H](N)C1=N[C@H](C(=O)N[C@@H](CC(C)C)C(=O)N[C@H](CCC(=O)[O-])C(=O)N[C@H](C(=O)N[C@H]2CCCCNC(=O)[C@H](CC(N)=O)NC(=O)[C@@H](CC(=O)[O-])NC(=O)[C@H](Cc3cnc[nH]3)NC(=O)[C@@H](Cc3ccccc3)NC(=O)[C@H]([C@@H](C)CC)NC(=O)[C@@H](CCCN)NC2=O)[C@@H](C)CC)CS1.[Zn+2] show?
93.6

Bench note: what cell viability did CC(C)(C)C[C@@H]1N[C@@H](C(=O)N[C@H]2CC[C@H](O)CC2)[C@H](c2cccc(Cl)c2F)[C@]12C(=O)Nc1cc(Cl)ccc12 show?
28.7

Bench note: what cell viability did O=C1NC(=O)/C(=C/c2ccc(-c3ccc(F)cc3O)o2)S1 show?
96.6

Bench note: what cell viability did O=C(O)C1=CCCNC1 show?
100

Bench note: what cell viability did CO[C@H]1/C=C\C=C(/C)C(=O)NC2=CC(=O)C(NCCN(C)C)=C(C[C@@H](C)C[C@H](OC)[C@H](O)[C@@H](C)/C=C(\C)[C@@H]1OC(N)=O)C2=O show?
1.4

Bench note: what cell viability did Cc1cc(C(C)(C)C)c(O)c(C)c1CC1=NCCN1 show?
84

----------
Please provide measured cell viability for the entries that follow.
# Tested on: Calu-3
# protocol notes: cell viability relative to DMSO; higher = less toxic
# condition info: 72 h; 10000 nM
Report as a plain number; the unit % is understood.

Bench note: what cell viability did CCOC(=O)C1=CCCC[C@H]1S(=O)(=O)Nc1ccc(F)cc1Cl show?
96.2

Bench note: what cell viability did Cc1ccccc1C(OCCN(C)C)c1ccccc1 (stereo not drawn) show?
92.9

Bench note: what cell viability did Nc1ncnc2c1c(-c1cccc(OCc3ccccc3)c1)cn2C1CC(CN2CCCC2)C1 (stereo in doubt) show?
44.2

Bench note: what cell viability did C[N+](C)(CCOc1ccccc1)Cc1ccccc1 [bephenium-hydroxynaphthoate] show?
102

Bench note: what cell viability did C=CC1=C(C)C2=CC3=NC(=C(CC(=O)O)C4=NC(=C(C)C4=C(O)O)C=c4[nH]c(c(C)c4CC)=CC1=N2)C(CCC(=O)O)C3C (stereo not drawn) show?
116

Bench note: what cell viability did CCC(=O)Nc1cccc(Oc2nc(Nc3ccc(N4CCN(C)CC4)cc3OC)ncc2Cl)c1 show?
82.5

Bench note: what cell viability did CNC(=O)c1ccc(Nc2ncc(C(F)(F)F)c(NCc3nccnc3N(C)S(C)(=O)=O)n2)cc1 show?
95.6

Bench note: what cell viability did CC1=C(/C=C/C(C)=C/C=C/C(C)=C/CO)C(C)(C)CCC1 show?
99.5

Bench note: what cell viability did CN1CCN(S(=O)(=O)c2ccc(-c3cnc(N)c(C(=O)Nc4cccnc4)n3)cc2)CC1 show?
85.7

Bench note: what cell viability did CC(C)(C)c1ccc(-c2nc3c(N4CCN(Cc5ccc6nccnc6c5)CC4)cccc3[nH]2)cc1 show?
92.1

Bench note: what cell viability did CC(N)CCCC(C)(C)O (stereo not drawn) show?
94.2

Bench note: what cell viability did CO/N=C1/C[C@@H](C(=O)NC[C@@H](O)c2ccccc2)N(C(=O)c2ccc(-c3ccccc3C)cc2)C1 show?
99.4

Bench note: what cell viability did N[C@@H](Cc1c[nH]c2ccc(O)cc12)C(=O)O [5-hydroxytryptophan] show?
107

Bench note: what cell viability did O=C(c1ccc(F)cc1)C1CCN(CCCCc2ccccc2)CC1 show?
85.8

Bench note: what cell viability did CC1(C)OC(=O)NC1=O show?
109

Bench note: what cell viability did CC(C)(C)S(=O)(=O)N[C@H]1CC[C@H](C(=O)Nc2ccc(C(F)(F)F)cn2)CC1 show?
99.1

Bench note: what cell viability did CCCCCCOC(=O)CCC(=O)CN [hexaminolevulinate] show?
104

Bench note: what cell viability did CC(C)(C)NCC(O)c1cc(Cl)c(N)c(C(F)(F)F)c1 (stereo not drawn) show?
98.2

----------
# System: HepG2
# protocol notes: cell viability relative to DMSO; higher = less toxic
# condition info: 72 h; 1 nM
measurement kind: cell viability (%)
Report as a plain number; the unit % is understood.

Bench note: what cell viability did CON(C)C(=O)[C@H](O)[C@H](Cc1ccccc1)NC(=O)c1cc2cc(Cl)ccc2[nH]1 show?
105

Bench note: what cell viability did Cn1cc(C(F)(F)F)nc1-c1ccc(OCC(O)CNCCOc2ccc(O)c(C(N)=O)c2)cc1 (stereo unspecified) show?
111

Bench note: what cell viability did CC[C@@H](C(=O)[C@@H](C)[C@@H](O)[C@H](C)[C@@H]1O[C@@H]([C@@H](CC)C(=O)O)CC[C@@H]1C)[C@H]1O[C@]2(C=C[C@@H](O)[C@]3(CC[C@@](C)([C@H]4CC[C@](O)(CC)[C@H](C)O4)O3)O2)[C@H](C)C[C@@H]1C [Salinomycin (Procoxacin)] show?
121

Bench note: what cell viability did CCc1ccc(OCc2ccccc2C(=O)Nc2ccc3nc(C)cc(N)c3c2)cc1 [JTC-801] show?
114

Bench note: what cell viability did CCC(=O)OCC(=O)[C@@]1(OC(=O)CC)[C@@H](C)C[C@H]2[C@@H]3CCC4=CC(=O)C=C[C@]4(C)[C@@]3(Cl)[C@@H](O)C[C@@]21C [beclomethasone-dipropionate] show?
97.3

Bench note: what cell viability did C[N+]1(C)[C@@H]2CC[C@H]1C[C@@H](OC(=O)C(O)c1ccccc1)C2 (stereo partly specified) [homatropine-methylbromide] show?
98.7

Bench note: what cell viability did Nc1ccn([C@@H]2O[C@H](CO)[C@@H](O)[C@@H]2O)c(=O)n1 [cytarabine] show?
95.2

Bench note: what cell viability did CC[N+](CC)(CCNC(=O)C(=O)NCC[N+](CC)(CC)Cc1ccccc1Cl)Cc1ccccc1Cl [ambenonium] show?
98.6

Bench note: what cell viability did CNCC(O)c1ccc(O)c(O)c1 (racemic) [DL-Adrenaline] show?
105

Bench note: what cell viability did COc1ccc(Cl)c(Nc2ncnc3cc(OCC4CCN(C)CC4)c(OC)cc23)c1 show?
99.1

Bench note: what cell viability did CCn1cc(C(=O)O)c(=O)c2cc(F)c(N3CCNC(C)C3)c(F)c21 (stereo unspecified) [lomefloxacin] show?
114

Bench note: what cell viability did CC1(C)OC(=O)NC1=O [dimethadione] show?
106

Bench note: what cell viability did CNC(=O)c1ccc(Nc2ncc(C(F)(F)F)c(NCc3nccnc3N(C)S(C)(=O)=O)n2)cc1 [defactinib] show?
100

Bench note: what cell viability did CN1CCN(S(=O)(=O)c2ccc(-c3cnc(N)c(C(=O)Nc4cccnc4)n3)cc2)CC1 [AZD2858] show?
104

Bench note: what cell viability did Cc1cc2nc3c(=O)[nH]c(=O)nc-3n(C[C@H](O)[C@H](O)[C@H](O)COP(=O)(O)O)c2cc1C [riboflavin-5-phosphate-sodium] show?
97.8

Bench note: what cell viability did Cc1cc(C(C)(C)C)c(O)c(C)c1CC1=NCCN1 [oxymetazoline] show?
103
